Exercise: for every item that follows, state its recorded IC50.
tested_on: recombinant human SYK360-635 (Homo sapiens (Human))
procedure_text: SYK kinase assay (33P ATP filtration, IC50 of SYK inhibition)
conditions: truncated SYK aa 360-635 0.5 nM, ATP 20 μM, peptide 5 μM, 30° C. 15 min; read-out: ENZYME_FILTRATION_IC50
Dear colleague, please return just the value in µM, with no unit written.

What value of measured IC50 is listed for CC1CCCN1c1cccc(Nc2cc(-c3cccc(CN4CCCC4)c3)nn3ccnc23)n1 (stereo not shown) ?
0.0608

What value of measured IC50 is listed for `CC1(C)CCN(c2cccc(Nc3cc(-c4cccc(C(=O)O)c4)nn4ccnc34)n2)CC1` ?
1.38

What value of measured IC50 is listed for COc1cncc(-c2cc(Nc3cccc(N4CCCC4C)n3)c3nccn3n2)c1 (stereo not shown) ?
0.0599

What value of measured IC50 is listed for `CNC(=O)c1ccc(NC(=O)c2cccc(-c3cc(Nc4ccc(OC)c(OC)n4)c4nccn4n3)c2)cc1` ?
0.103
